For each record, write down the corresponding normalized growth.
# Assay Details: chemical genetic growth profiling, strain panel (AID 1159580);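 further: tested at 20 µM; growth read once vehicle control cultures reached saturation at 30 °C; 1 = growth at the plate median or of vehicle wells; lower values mean less growth of the strain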
# Condition Context: S. cerevisiae deletion strains, growth OD, strain TSCII, hits give low values
The whole screen tested about 5,500 compounds, of which about 2,000 (36%) were called active. Another 18% or so got no clear call; they are omitted. The list shows a part of the results.
Give bare numbers.

Look over these answered cases.
compound="N#CC(C(=O)Nc1cccc(C(F)(F)F)c1)C(=S)Nc1ccccc1Cl (configuration not stated)" measurement_kind="normalized growth" measured_result=0.996
compound=COC(=O)c1cc(I)c(OC(C)=O)c(I)c1 measurement_kind="normalized growth" measured_result=0.948
compound=CC(C)(C)c1ccc(-c2cc(NC(=O)c3ccc(Cl)cc3)n[nH]2)cc1 measurement_kind="normalized growth" measured_result=1.03
compound=O=C(Nc1ccccc1Sc1ccc(C(F)(F)F)cc1[N+](=O)[O-])C(Cl)Cl measurement_kind="normalized growth" measured_result=0.992
compound=CC(C)Sc1c(Cl)cccc1NC(=O)Nc1ccccc1 measurement_kind="normalized growth" measured_result=0.963
compound=Cc1oc(C(C)(C)C)cc1-c1cc(NC(=O)c2ccccc2)n[nH]1 measurement_kind="normalized growth" measured_result=0.958

# evaluate next
Provide only the value of recorded normalized growth for COC(=O)c1sccc1S(=O)(=O)Nc1cc(C(F)(F)F)cc(C(F)(F)F)c1
0.972

Cited source for all entries: PubChem BioAssay AID1159580
